Taken from patent US20240384350A1.

study_system: EGFR Ex19del/T790M/G724S (Homo sapiens, UniProt P00533, DEL746-750/G724S/T790M)
Construct: expressed in transfected cells; host or cells: Ba/F3
test: Ba/F3 drug screening, Cell Titer Glo, IC50 Mut/WT
Assay type: cell-based
experimental_context: T790M-like-3S, 72 hours
// reported ratio of IC50 for cells with mutant EGFR to IC50 for cells with wildtype EGFR (Mut/WT) for each item listed

Recorded results for 3 compounds are shown here.
In [3]: df
Out[3]:
                                  structure      val
0  C=CC(=O)Nc1cc(Nc2nccc(-n3cc(CN(C)C)c(-c4ccccc4)n3)n2)c(OC)cc1N1CCOCC1  0.02984
1  C=CC(=O)N[C@H]1C=C(C)c2c(-c3cnc4ccccc4c3)c3c(N)ncnc3n2C1   0.1997
2  CNC(=O)CN1CCC(Oc2cc3c(Nc4cccc(Cl)c4F)ncnc3cc2OC)CC1    26.15

Continue with the next compound.
Dear colleague, please send me the reported ratio of IC50 for cells with mutant EGFR to IC50 for cells with wildtype EGFR (Mut/WT) for C=CC(=O)Nc1cc(Nc2ncc(C(=O)OC(C)C)c(-c3cn(C)c4ccccc34)n2)c(OC)cc1N(C)CCN(C)C when you can. 3.12

---

study_system: EGFR L861Q (Homo sapiens, UniProt P00533, L861Q)
Construct: expressed in transfected cells; host or cells: Ba/F3 cells, retroviral pBabe-Puro vector
test: Ba/F3 drug screening, Cell Titer Glo, IC50 Mut/WT
Type: cell-based
experimental_context: Classical-Like, 72 hours
reported_metric: ratio of IC50 for cells with mutant EGFR to IC50 for cells with wildtype EGFR (Mut/WT)
Answer as a number with no unit attached.

Recorded results for 3 compounds are shown here.
                                  structure      val
0  C=CC(=O)Nc1cccc(Oc2nc(Nc3ccc(N4CCN(C)CC4)cc3)nc3ccsc23)c1  0.05048
1  C=CC(=O)N1CC[C@@H](Oc2nc(Nc3ccc(N4CCC(N5CCN(C)CC5)CC4)cc3)c(C(N)=O)nc2CC)C1   0.1616
2  C=CC(=O)Nc1cc(Nc2ncc(C(=O)OC(C)C)c(-c3cn(C)c4ccccc34)n2)c(OC)cc1N(C)CCN(C)C   0.8467

Dear colleague, please send me the reported ratio of IC50 for cells with mutant EGFR to IC50 for cells with wildtype EGFR (Mut/WT) for C=CC(=O)Nc1cc(Nc2nccc(-c3c[nH]c4ccccc34)n2)c(OC)cc1N(C)CCN(C)C when you can. 0.5871

Dear colleague, please send me the reported ratio of IC50 for cells with mutant EGFR to IC50 for cells with wildtype EGFR (Mut/WT) for Cc1cc(C(=O)Nc2nc3cccc(Cl)c3n2[C@@H]2CCCCN(C(=O)/C=C/CN(C)C)C2)ccn1 when you can. 0.03861

Dear colleague, please send me the reported ratio of IC50 for cells with mutant EGFR to IC50 for cells with wildtype EGFR (Mut/WT) for COc1cc2ncnc(Nc3cccc(Cl)c3F)c2cc1OC(=O)N1CCN(C)C[C@H]1C when you can. 0.08924

Dear colleague, please send me the reported ratio of IC50 for cells with mutant EGFR to IC50 for cells with wildtype EGFR (Mut/WT) for C=CC(=O)N[C@H]1C=C(C)c2c(-c3cnc4ccccc4c3)c3c(N)ncnc3n2C1 when you can. 0.02761

Dear colleague, please send me the reported ratio of IC50 for cells with mutant EGFR to IC50 for cells with wildtype EGFR (Mut/WT) for CNC(=O)CN1CCC(Oc2cc3c(Nc4cccc(Cl)c4F)ncnc3cc2OC)CC1 when you can. 0.01265

Dear colleague, please send me the reported ratio of IC50 for cells with mutant EGFR to IC50 for cells with wildtype EGFR (Mut/WT) for COc1cc2ncnc(Nc3ccc(F)c(Cl)c3)c2cc1NC(=O)/C=C/CN1CCCCC1 when you can. 0.002064

Dear colleague, please send me the reported ratio of IC50 for cells with mutant EGFR to IC50 for cells with wildtype EGFR (Mut/WT) for CN(C)C/C=C/C(=O)Nc1cc2c(Nc3ccc(Cl)c(Br)c3)ncnc2cn1 when you can. 0.05346

Dear colleague, please send me the reported ratio of IC50 for cells with mutant EGFR to IC50 for cells with wildtype EGFR (Mut/WT) for C=CC(=O)Nc1cc(Nc2nccc(-n3cc(CN(C)C)c(-c4ccccc4)n3)n2)c(OC)cc1N1CCOCC1 when you can. 0.05622

---

// reported ratio of IC50 for cells with mutant EGFR to IC50 for cells with wildtype EGFR (Mut/WT) for each item listed
study_system: EGFR Ex19del/T790M/L792H (Homo sapiens, UniProt P00533, DEL746-750/L792H/T790M)
Construct: expressed in transfected cells; host or cells: Ba/F3
test: Ba/F3 drug screening, Cell Titer Glo, IC50 Mut/WT
Format: cell-based
experimental_context: T790M-like-3R, 72 hours
Answer as a number with no unit attached.

Recorded results for 8 molecules are shown here.
In [3]: df
Out[3]:
                                  structure        val
0  C=CC(=O)Nc1cc(Nc2nccc(-n3cc(CN(C)C)c(-c4ccccc4)n3)n2)c(OC)cc1N1CCOCC1      1.105
1  C=CC(=O)Nc1cc(Nc2ncc(C(=O)OC(C)C)c(-c3cn(C)c4ccccc34)n2)c(OC)cc1N(C)CCN(C)C      0.885
2  C=CC(=O)N[C@H]1C=C(C)c2c(-c3cnc4ccccc4c3)c3c(N)ncnc3n2C1  0.0002637
3  C=CC(=O)N1CC[C@@H](Oc2nc(Nc3ccc(N4CCC(N5CCN(C)CC5)CC4)cc3)c(C(N)=O)nc2CC)C1      4.634
4  CN(C)C/C=C/C(=O)Nc1cc2c(Nc3ccc(Cl)c(Br)c3)ncnc2cn1      74.97
5  CNC(=O)CN1CCC(Oc2cc3c(Nc4cccc(Cl)c4F)ncnc3cc2OC)CC1      451.7
6  COc1cc2ncnc(Nc3ccc(F)c(Cl)c3)c2cc1NC(=O)/C=C/CN1CCCCC1      48.51
7  COc1cc2ncnc(Nc3cccc(Cl)c3F)c2cc1OC(=O)N1CCN(C)C[C@H]1C      9.625

Determine reported ratio of IC50 for cells with mutant EGFR to IC50 for cells with wildtype EGFR (Mut/WT) for Cc1cc(C(=O)Nc2nc3cccc(Cl)c3n2[C@@H]2CCCCN(C(=O)/C=C/CN(C)C)C2)ccn1 ; test system: EGFR Ex19del/T790M/L792H (Homo sapiens, UniProt P00533, DEL746-750/L792H/T790M). 4.292

Determine reported ratio of IC50 for cells with mutant EGFR to IC50 for cells with wildtype EGFR (Mut/WT) for C=CC(=O)Nc1cc(Nc2nccc(-c3c[nH]c4ccccc34)n2)c(OC)cc1N(C)CCN(C)C ; test system: EGFR Ex19del/T790M/L792H (Homo sapiens, UniProt P00533, DEL746-750/L792H/T790M). 1.486

Determine reported ratio of IC50 for cells with mutant EGFR to IC50 for cells with wildtype EGFR (Mut/WT) for C=CC(=O)Nc1cccc(Oc2nc(Nc3ccc(N4CCN(C)CC4)cc3)nc3ccsc23)c1 ; test system: EGFR Ex19del/T790M/L792H (Homo sapiens, UniProt P00533, DEL746-750/L792H/T790M). 2.218

---

// reported ratio of IC50 for cells with mutant EGFR to IC50 for cells with wildtype EGFR (Mut/WT) for each item listed
study_system: EGFR L858R/T790M/L718Q (Homo sapiens, UniProt P00533, L718Q/L858R/T790M)
Construct: expressed in transfected cells; host or cells: Ba/F3
test: Ba/F3 drug screening, Cell Titer Glo, IC50 Mut/WT
Type: cell-based
experimental_context: T790M-like-3R, 72 hours
Answer as a number with no unit attached.

Recorded results for 3 compounds are shown here.
>>> print(df.to_string())
                                  structure     val
0  C=CC(=O)Nc1cc(Nc2nccc(-n3cc(CN(C)C)c(-c4ccccc4)n3)n2)c(OC)cc1N1CCOCC1   11.87
1  C=CC(=O)Nc1cc(Nc2nccc(-c3c[nH]c4ccccc34)n2)c(OC)cc1N(C)CCN(C)C   29.86
2  Cc1cc(C(=O)Nc2nc3cccc(Cl)c3n2[C@@H]2CCCCN(C(=O)/C=C/CN(C)C)C2)ccn1  0.7714

Dear colleague, please send me the reported ratio of IC50 for cells with mutant EGFR to IC50 for cells with wildtype EGFR (Mut/WT) for C=CC(=O)Nc1cccc(Oc2nc(Nc3ccc(N4CCN(C)CC4)cc3)nc3ccsc23)c1 when you can. 0.6196

Dear colleague, please send me the reported ratio of IC50 for cells with mutant EGFR to IC50 for cells with wildtype EGFR (Mut/WT) for C=CC(=O)N[C@H]1C=C(C)c2c(-c3cnc4ccccc4c3)c3c(N)ncnc3n2C1 when you can. 3.055

Dear colleague, please send me the reported ratio of IC50 for cells with mutant EGFR to IC50 for cells with wildtype EGFR (Mut/WT) for C=CC(=O)Nc1cc(Nc2ncc(C(=O)OC(C)C)c(-c3cn(C)c4ccccc34)n2)c(OC)cc1N(C)CCN(C)C when you can. 149.2

Dear colleague, please send me the reported ratio of IC50 for cells with mutant EGFR to IC50 for cells with wildtype EGFR (Mut/WT) for COc1cc2ncnc(Nc3ccc(F)c(Cl)c3)c2cc1NC(=O)/C=C/CN1CCCCC1 when you can. 45.78

Dear colleague, please send me the reported ratio of IC50 for cells with mutant EGFR to IC50 for cells with wildtype EGFR (Mut/WT) for C=CC(=O)N1CC[C@@H](Oc2nc(Nc3ccc(N4CCC(N5CCN(C)CC5)CC4)cc3)c(C(N)=O)nc2CC)C1 when you can. 0.6815

Dear colleague, please send me the reported ratio of IC50 for cells with mutant EGFR to IC50 for cells with wildtype EGFR (Mut/WT) for CN(C)C/C=C/C(=O)Nc1cc2c(Nc3ccc(Cl)c(Br)c3)ncnc2cn1 when you can. 304.5

Dear colleague, please send me the reported ratio of IC50 for cells with mutant EGFR to IC50 for cells with wildtype EGFR (Mut/WT) for COc1cc2ncnc(Nc3cccc(Cl)c3F)c2cc1OC(=O)N1CCN(C)C[C@H]1C when you can. 4.812
